Recorded normalized growth values for a group of molecules are listed next.
assay: chemical genetic growth profiling, strain panel (AID 1159580);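 further: tested at 20 µM; growth read once vehicle control cultures reached saturation at 30 °C; 1 = growth at the plate median or of vehicle wells; lower values mean less growth of the strain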; settings: S. cerevisiae deletion strains, growth OD, locus YML120C, strain ndi1, active compounds read low
The whole screen tested about 5,500 compounds, of which about 2,000 (36%) were called active. Not shown: some 18% with an inconclusive outcome. This is one part of the list.

molecule | normalized growth
CCCc1cc(=O)[nH]c(=S)[nH]1 | 1 (inactive)
Cc1cc(=O)[nH]c(=S)[nH]1 | 0.972 (inactive)
CC12CCC3C(CC3(C)C)C(C)(CCC1=O)O2 (configuration not stated) | 1 (inactive)
CS(=O)(=O)Nc1ccc([N+](=O)[O-])cc1Oc1ccccc1 | 0.993 (inactive)
O=P1(N(CCCl)CCCl)NCCCO1 (configuration not stated) | 1.04 (inactive)
CS(=O)(=O)c1ccc([C@@H](O)[C@@H](CO)NC(=O)C(Cl)Cl)cc1 | 1.05 (inactive)
CC1(C)CC2C1CC[C@]1(C)CCC3C(C(=O)O)CC(=O)O[C@@]32C1 (some centres not stated) | 1.04 (inactive)

* * *

assay: chemical genetic growth profiling, strain panel (AID 1159580);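 further: tested at 20 µM; growth read once vehicle control cultures reached saturation at 30 °C; 1 = growth at the plate median or of vehicle wells; lower values mean less growth of the strain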; conditions: S. cerevisiae deletion strains, growth OD, locus YER123W, strain YCK3
About 2,000 (36%) of roughly 5,500 compounds were called active. Not shown: some 18% with an inconclusive outcome. Rule as the data show it: active = normalized growth mostly below about 0.91 (no sharp cut-off); inconclusive = no clear call, values can overlap the other calls; inactive = mostly above about 0.92. This is one part of the list.
Outcomes: active, inactive

chemical-structure | category
O=C(Nc1ccc(F)cc1F)c1cc(Cl)c(-n2cccc2)c(Cl)c1 | inactive
N#CSCC(=O)c1ccccc1 | active
N/C(Cc1cccc2ccccc12)=N/OC(=O)c1ccc(Cl)cc1 | inactive
NC(=S)N/N=C1/CCCc2ccccc21 | inactive
Cc1cc(/C(N)=N\OC(=O)C(C)(C)C)cc(/C(N)=N\OC(=O)C(C)(C)C)c1 | inactive
O=C(Nc1cccc(Cl)c1)O/N=C1\CCCc2occc21 | inactive
CC(=O)c1ccc(Cl)c(N=Cc2cc(Cl)cc(Cl)c2O)c1 | active
COc1c(Br)csc1C(=O)O/N=C(/N)c1cc(C(F)(F)F)cc(C(F)(F)F)c1 | inactive
CCOC(=O)c1ccc(Cl)c(N=Cc2cc(Cl)cc(Cl)c2O)c1 | active
CSc1n[nH]c(-c2cc(C(C)(C)C)oc2C)c1C#N | inactive
CC(=O)c1ccc(Cl)c(N=Cc2cc(Br)cc(Br)c2O)c1 | active

* * *

test: chemical genetic growth profiling, strain panel (AID 1159580);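 further: tested at 20 µM; growth read once vehicle control cultures reached saturation at 30 °C; 1 = growth at the plate median or of vehicle wells; lower values mean less growth of the strain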; conditions: S. cerevisiae deletion strains, growth OD, locus YPR119W, strain clb2, active compounds read low
Out of some 5,500 compounds screened, about 2,000 (36%) were called active. Roughly 18% stayed inconclusive and do not appear here. The list shows a part of the results.
Recorded normalized growth values for a group of compounds are listed next.

compound | normalized growth
CC(=O)O[C@H]1CC[C@@]2(C)C(C[C@@H](OC(C)=O)[C@@]3(C)C4=CC(=O)O[C@@H](c5ccoc5)[C@]4(C)CCC23)C1(C)C (some centres undefined) | 0.992
CC(=O)O[C@@H]1CC2C(C)(C)C(=O)C=C[C@]2(C)C2CC[C@]3(C)C(=CC(=O)O[C@H]3c3ccoc3)[C@@]21C (some centres undefined) | 0.988
COC(=O)c1c(C)c2c(c(C)c1OC)OC(=O)c1c(C)c(Cl)c(OC)c(Cl)c1O2 | 1.01
COC(=O)c1c(C)c2c(c(C)c1O)OC(=O)c1c(C)c(Cl)c(O)c(Cl)c1O2 | 1
